The measured values listed here are drawn from PubChem BioAssay.

- PROTOCOL_DETAILS: small-molecule binders of probe aInhba, primary screen, biochemical, small-molecule microarray, 635/667 nm fluorescence (AID 1148);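 note: score merges 667nm spot fluorescence with signal-to-noise for antibody binding to printed compounds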
- MEASUREMENT_SETUP: higher = more signal
Use 0.05 as the dividing line for composite z-score, with the line itself on the MET side and lower values as NOT MET.

Q. I'd appreciate it if you could say whether CC(C)C[C@@H]1NC(=O)[C@H]2C[C@@H](C(=O)NCCCCCNC(=O)CS)[C@@H](c3ccc(O)cc3)N2C1=O has composite z-score at least equal to 0.05.
A. NOT MET

Q. I'd appreciate it if you could say whether CN(C)CCCC[C@@H]1NC(=O)[C@@H]2C[C@H](C(=O)NCc3ccc(F)cc3)[C@H](c3ccc(O)cc3)N2C1=O has composite z-score at least equal to 0.05.
A. MET

Q. I'd appreciate it if you could say whether [N-]=[N+]=Nc1ccccc1[C@@H]1OC(c2ccc(OCCCO)cc2)=N[C@]1(Cc1ccccc1)C(N)=O has composite z-score at least equal to 0.05.
A. MET

Q. I'd appreciate it if you could say whether COCCOC(=O)N1C(=O)[C@@]2(c3cc(C#CC4=CCCCC4)ccc31)[C@H](C(=O)N1CCN(c3ncccn3)CC1)[C@H]1C(=O)O[C@H](c3ccccc3)[C@H](c3ccccc3)N1[C@@H]2c1ccccc1OCCO has composite z-score at least equal to 0.05.
A. NOT MET

Q. I'd appreciate it if you could say whether COC(=O)[C@@]1(Cc2ccc(OC)cc2)[C@H]2c3cc(C(=O)N(C)C)n(Cc4ccsc4Br)c3C[C@H]2CN1C(=O)c1ccccc1 has composite z-score at least equal to 0.05.
A. MET

###

Record form. Attribute: z-score. Fill in for each entry.
- PROTOCOL_DETAILS: Plasmodium falciparum growth inhibition, primary screen, strain 3D7, DAPI fluorescence, 100 nL (AID 1184);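 note: parasites grown inside human red blood cells in medium with human serum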
- MEASUREMENT_SETUP: P. falciparum 3D7 growth, 3 d, higher = more signal
API note: the answer field is a bare number with no unit suffix.

Reported z-score for CN(C)C(=O)[C@]1(Cc2ccccc2CN=[N+]=[N-])N=C(c2ccc(OCCCO)cc2)O[C@@H]1c1ccccc1N=[N+]=[N-] was -1.89

Reported z-score for CCCC[C@H]1OB(O)C[C@H]2C1=C(C)C[C@H]1C(=O)C=CC(=O)[C@H]12 was -0.0202

Reported z-score for COC(=O)[C@@]1(CCS(=O)(=O)c2ccccc2)N=C(c2ccc(OCCCO)cc2)O[C@H]1c1ccccc1N=[N+]=[N-] was -1.98

Reported z-score for CCC[C@@H]1C=C(C(=O)OCC)[C@H](c2ccccc2)N1S(=O)(=O)c1ccc(C)cc1 was -2.11

Reported z-score for C=CCOC(=O)[C@H]1[C@@H]2C(=O)O[C@@H](c3ccccc3)[C@@H](c3ccccc3)N2[C@@H](c2ccc(OCCOC(=O)[C@@H]3C[C@@H]4C(=O)N[C@@H](CC(C)C)C(=O)N4[C@@H]3c3ccc(O)cc3)cc2)[C@]12C(=O)Nc1ccc(I)cc12 was -1.79

Reported z-score for COCCOC(=O)N1C(=O)[C@@]2(c3cc(C#CC4(O)CCCCCC4)ccc31)[C@H](c1ccccc1OCCO)N1[C@H](c3ccccc3)[C@H](c3ccccc3)OC(=O)[C@H]1[C@@H]2C(=O)N1CCCCCCC1 was -1.93

Reported z-score for COC(=O)[C@@]1(Cc2ccc(OC)cc2)[C@H]2c3cc(C(=O)N(C)C)n(Cc4ccsc4Br)c3C[C@H]2CN1C(=O)c1ccccc1 was -1.02

Reported z-score for CC(C)C(=C=CC[C@@H](O)c1cccc(OCCO)c1)CCO was -0.115
